- Method Description: DPPH free radical-scavenging activity
- Measurement Setup: 10 μg/mL, Table S3
Measurement Name: DPPH Radical Scavenging (%)
Please reply with the bare figure in % and do not write the unit itself.

Asked: GET /values?readout=DPPH Radical Scavenging (%)&item= O=C1O[C@H]([C@@H](O)CO)C(O)=C1O [L-Ascorbic acid, reference compound]
Given back: 98.01

Asked: Check O=Cc1ccc(O)cc1 [Compound 2, p-hydroxybenzaldehyde] too.
Given back: 4.43

Asked: Please give the result for COc1cc(/C=C/C(=O)NCCc2ccc(O)cc2)ccc1O [Compound 3, N-trans-feruloyltyramine] too.
Given back: 63.25

Asked: // query: COc1cc(/C=C/C(=O)O[C@@H]2C[C@@](OC(=O)/C=C/c3ccc(O)c(OC)c3)(C(=O)O)C[C@@H](O)[C@@H]2O)ccc1O [Compound 1, 1,3-di-O-trans-feruloyl-(−)-quinic acid]
Given back: 51.54

====

- Method Description: ABTS radical-scavenging assay
- Measurement Setup: read-out: Radical Scavenging Activity Against ABTS IC50
- Description: ABTS radical-scavenging activity was measured using a modified method of Re et al.. The ABTS stock solution was diluted in water to a concentration of 7.4 mM. […] The ABTS solution was diluted with ethanol to obtain an absorbance (Ablank) of 0.70 ± 0.02 at 415 nm. […] The absorbance (Asample) at 415 nm was measured using a microplate reader (Model Infinite M200 PRO; Tecan, Austria). […]
Measurement Name: IC50
Reply with the number, then its unit.

Asked: Entry COc1cc(/C=C/C(=O)O[C@@H]2C[C@@](OC(=O)/C=C/c3ccc(O)c(OC)c3)(C(=O)O)C[C@@H](O)[C@@H]2O)ccc1O [Compound 1, 1,3-di-O-trans-feruloyl-(−)-quinic acid] : reported IC50 = ?
Given back: 30.1 µM

Asked: Also check O=C1O[C@H]([C@@H](O)CO)C(O)=C1O [L-Ascorbic acid, reference compound]
Given back: 19.9 µM

Asked: Same question for COc1cc(/C=C/C(=O)NCCc2ccc(O)cc2)ccc1O [Compound 3, N-trans-feruloyltyramine] please.
Given back: 26.1 µM

====

Please go through the items and note down their ABTS Radical Scavenging (%).
- Method Description: ABTS radical-scavenging assay
- Measurement Setup: 50 μg/mL, Table S4
Give a bare numeral; the unit % is implied.

Asked: Which ABTS Radical Scavenging (%) is reported for this compound? COc1cc(/C=C/C(=O)NCCc2ccc(O)cc2)ccc1O [Compound 3, N-trans-feruloyltyramine]
Given back: 82.19

Asked: Record: O=C1O[C@H]([C@@H](O)CO)C(O)=C1O [L-Ascorbic acid, reference compound]
Given back: 99.77

Asked: Then this compound: O=Cc1ccc(O)cc1 [Compound 2, p-hydroxybenzaldehyde]
Given back: 8.71

Asked: Continue with COc1cc(/C=C/C(=O)O[C@@H]2C[C@@](OC(=O)/C=C/c3ccc(O)c(OC)c3)(C(=O)O)C[C@@H](O)[C@@H]2O)ccc1O [Compound 1, 1,3-di-O-trans-feruloyl-(−)-quinic acid]
Given back: 66.38

====

Consider the following molecules; for each one, report its IC50.
- Target Of Assay: porcine pancreatic lipase (Sus scrofa, UniProt P00591)
- Sequence (P00591 1-450): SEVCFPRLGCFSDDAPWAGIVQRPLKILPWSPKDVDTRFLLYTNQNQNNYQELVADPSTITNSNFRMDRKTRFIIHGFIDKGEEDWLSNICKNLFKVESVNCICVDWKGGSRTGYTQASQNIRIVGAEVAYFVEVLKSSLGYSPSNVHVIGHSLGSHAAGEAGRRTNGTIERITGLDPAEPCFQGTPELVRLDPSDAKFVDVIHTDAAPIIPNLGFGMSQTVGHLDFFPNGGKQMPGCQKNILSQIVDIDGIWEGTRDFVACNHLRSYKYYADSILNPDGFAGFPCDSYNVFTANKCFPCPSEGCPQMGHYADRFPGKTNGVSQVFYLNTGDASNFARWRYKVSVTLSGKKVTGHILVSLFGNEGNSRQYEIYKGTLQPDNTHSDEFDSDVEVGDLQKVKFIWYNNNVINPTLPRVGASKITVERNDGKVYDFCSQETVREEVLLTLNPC
Hi! Could you send only the number? It should be in µM, unit omitted.

Asked: Would you kindly share the measured IC50 for COc1cc(/C=C/C(=O)O[C@@H]2C[C@@](OC(=O)/C=C/c3ccc(O)c(OC)c3)(C(=O)O)C[C@@H](O)[C@@H]2O)ccc1O [Compound 1, 1,3-di-O-trans-feruloyl-(−)-quinic acid] ?
Given back: 242

Asked: Same lookup for O=Cc1ccc(O)cc1 [Compound 2, p-hydroxybenzaldehyde] , please.
Given back: 710
